Source: patent US12516056B2

molecular target: Recombinant JAK2 (Homo sapiens, UniProt O60674); construct: purchased Carna Biosciences; experiment: JAK biochemical assay (LANCE Ultra TR-FRET), JAK2; conditions: recombinant JAK2, TR-FRET; read-out: Biochemical Assay (μM) JAK2
Sequence (O60674 whole entry): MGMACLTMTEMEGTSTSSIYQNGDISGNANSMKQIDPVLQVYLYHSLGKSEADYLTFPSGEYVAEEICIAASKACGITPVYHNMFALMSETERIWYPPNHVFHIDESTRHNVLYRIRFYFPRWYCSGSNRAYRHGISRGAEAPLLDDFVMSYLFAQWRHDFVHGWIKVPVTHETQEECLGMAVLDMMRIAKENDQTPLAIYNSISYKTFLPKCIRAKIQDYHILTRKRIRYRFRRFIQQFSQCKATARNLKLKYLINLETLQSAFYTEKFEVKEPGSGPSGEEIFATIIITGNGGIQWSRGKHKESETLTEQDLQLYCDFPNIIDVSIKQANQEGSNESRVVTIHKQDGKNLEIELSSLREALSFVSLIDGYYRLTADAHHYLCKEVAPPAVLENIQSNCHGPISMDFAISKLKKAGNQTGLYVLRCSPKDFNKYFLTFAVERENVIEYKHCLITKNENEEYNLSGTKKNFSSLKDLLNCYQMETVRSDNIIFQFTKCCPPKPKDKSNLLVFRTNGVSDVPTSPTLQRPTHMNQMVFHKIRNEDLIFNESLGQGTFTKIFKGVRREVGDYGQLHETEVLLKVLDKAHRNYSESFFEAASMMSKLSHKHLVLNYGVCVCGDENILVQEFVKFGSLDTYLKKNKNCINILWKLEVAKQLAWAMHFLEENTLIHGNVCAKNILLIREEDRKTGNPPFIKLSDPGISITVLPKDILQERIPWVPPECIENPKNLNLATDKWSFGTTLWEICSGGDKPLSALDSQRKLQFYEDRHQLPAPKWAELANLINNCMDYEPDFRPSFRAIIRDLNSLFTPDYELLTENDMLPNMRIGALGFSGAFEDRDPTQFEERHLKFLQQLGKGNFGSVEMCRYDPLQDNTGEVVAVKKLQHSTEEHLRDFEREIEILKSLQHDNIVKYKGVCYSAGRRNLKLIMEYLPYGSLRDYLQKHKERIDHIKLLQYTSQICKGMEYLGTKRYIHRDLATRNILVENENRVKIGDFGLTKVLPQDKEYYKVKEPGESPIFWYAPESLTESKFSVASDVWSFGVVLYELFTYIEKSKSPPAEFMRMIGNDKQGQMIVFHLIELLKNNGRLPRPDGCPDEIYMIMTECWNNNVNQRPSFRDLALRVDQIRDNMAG
measure: IC50

[
  {
    "molecule": "CC(C)[C@@H](C#N)NC(=O)n1cc(-c2ccnc3[nH]cnc23)cn1",
    "target.or.system": "Recombinant JAK2 (Homo sapiens, UniProt O60674)",
    "endpoint.result": "> 0.5 µM"
  },
  {
    "molecule": "N#CCC(NC(=O)n1cc(-c2ccnc3[nH]c(=O)[nH]c23)cn1)C1CC1 (centres unmarked)",
    "target.or.system": "Recombinant JAK2 (Homo sapiens, UniProt O60674)",
    "endpoint.result": "< 0.5 µM"
  },
  {
    "molecule": "O=C(NC1CCS(=O)(=O)CC1)N1CCN(c2ccnc3[nH]c(=O)[nH]c23)CC1",
    "target.or.system": "Recombinant JAK2 (Homo sapiens, UniProt O60674)",
    "endpoint.result": "> 10 µM"
  },
  {
    "molecule": "OC(c1ccc(-n2cc(-c3ccnc4[nH]cnc34)cn2)nc1)(C1CCCC1)C(F)(F)F (centres unmarked)",
    "target.or.system": "Recombinant JAK2 (Homo sapiens, UniProt O60674)",
    "endpoint.result": "> 0.5 µM"
  },
  {
    "molecule": "N#CCC(=O)NC(c1ccc(-n2cc(-c3ccnc4[nH]cnc34)cn2)nc1)C(F)(F)F (centres unmarked)",
    "target.or.system": "Recombinant JAK2 (Homo sapiens, UniProt O60674)",
    "endpoint.result": "< 0.1 µM"
  },
  {
    "molecule": "CC(C)(O)CC(c1ccc(-n2cc(-c3ccnc4[nH]cnc34)cn2)nc1)C(F)(F)F (centres unmarked)",
    "target.or.system": "Recombinant JAK2 (Homo sapiens, UniProt O60674)",
    "endpoint.result": "> 0.5 µM"
  },
  {
    "molecule": "N#CCC(NC(=O)n1cc(-c2ccnc3[nH]cnc23)cn1)C1CCOCC1 (centres unmarked)",
    "target.or.system": "Recombinant JAK2 (Homo sapiens, UniProt O60674)",
    "endpoint.result": "< 0.5 µM"
  },
  {
    "molecule": "O=S(=O)(CC[C@@H](c1ccc(-n2cc(-c3ccnc4[nH]cnc34)cn2)nc1)C(F)(F)F)C1CC1",
    "target.or.system": "Recombinant JAK2 (Homo sapiens, UniProt O60674)",
    "endpoint.result": "< 0.1 µM"
  }
]
